# Measurement Target: T1, recombinant human CTLA4-his protein (Acro biosystems, Cat#CT4-H5229) (human, UniProt P16410 37-162)
# T1 construct: bought recombinant protein; not shown: his tag
# T1 sequence (looked up): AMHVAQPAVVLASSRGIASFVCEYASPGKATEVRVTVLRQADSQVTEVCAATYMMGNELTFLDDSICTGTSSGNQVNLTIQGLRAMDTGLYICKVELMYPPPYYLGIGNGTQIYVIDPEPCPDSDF
# Experiment Summary: BLI, Octet; antibody from cell supernatant on AHC sensor, CTLA4-his as analyte
Quantity: koff (s⁻¹)
Write the number in s⁻¹ without appending the unit.

huC1D1-V5 (antibody, human IgG4 S228P, kappa, V domains shown, humanized IgG4/kappa; tested as 293F cell supernatant on Octet; also called hu CTLA4 C1D1-V5) VH: EVQLVESGGGLVQPGRSLRLSCTASGFTFSDNWMNWVRQAPGKGLEWVAQIRNKPYNYETYYSDSVKGRFTISRDDSKSIVYLQMNSLKTEDTAVYYCTGGMDYWGQGTTVTVSS VL: DIQMTQSPSSLSASVGDRVTITCGASEIIYGALNWYQQKPGKSPKLLIYGATNLADGVPSRFSGSGSGTDFTLTISSLQPEDVATYYCQKILSPPPWTFGGGTKVEIKR has a reported koff of 0.000476

Sure, the documented koff for huC1D1-V3 (antibody, human IgG4 S228P, kappa, V domains shown, humanized IgG4/kappa; tested as 293F cell supernatant on Octet; also called hu CTLA4 C1D1-V3) VH: EVQLVESGGGLVQPGRSLRLSCTASGFTFSDNWMNWVRQAPGKGLEWVGQIRNKPYNYETYYSDSVKGRFTISRDDSKSIVYLQMNSLKTEDTAVYYCTGGMDYWGQGTTVTVSS VL: DIQMTQSPSSLSASVGDRVTITCGASEIIYGALNWYQQKPGKSPKLLIYGATNLADGMPSRFSGSGSGRDYTLTISSLQPEDVATYYCQKILSPPPWTFGGGTKVEIKR is 0.000259

// huC1D1-V4 (antibody, human IgG4 S228P, kappa, V domains shown, humanized IgG4/kappa; tested as 293F cell supernatant on Octet; also called hu CTLA4 C1D1-V4) VH: EVQLVESGGGLVQPGRSLRLSCTASGFTFSDNWMNWVRQAPGKGLEWVGQIRNKPYNYETYYSDSVKGRFTISRDDSKSIAYLQMNSLKTEDTAVYYCTGGMDYWGQGTTVTVSS VL: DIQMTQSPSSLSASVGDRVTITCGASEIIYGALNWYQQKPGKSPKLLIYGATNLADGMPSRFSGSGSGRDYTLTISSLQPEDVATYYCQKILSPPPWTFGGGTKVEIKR : koff value = 0.000229

Recorded koff (binder huD1D5-V7 (antibody, human IgG4 S228P, kappa, V domains shown, humanized IgG4/kappa; tested as 293F cell supernatant on Octet; also called hu CTLA4 D1D5-V7) VH: EVQLVESGGGLVKPGGSLRLSCAASGFTFSDYGMAWVRQAPGKGLEWVAFISNLAYSVYYADTETGRFTISRDDAKNSLYLQMNSLRAEDTAVYYCARSGLPYAMDYWGQGTTVTVSS VL: DIQMTQSPSSLSASVGDRVTITCRASQDISNYLNWYQQKPGKVPKLLIYYISRLHSGVPSRFSGSGSGTDFTLTISSLQPEDVATYFCQQGRMLPWTFGGGTKVEIKR ): 0.000857

koff in this record for huC1D1-V9 (antibody, human IgG4 S228P, kappa, V domains shown, humanized IgG4/kappa; tested as 293F cell supernatant on Octet; also called hu CTLA4 C1D1-V9) VH: EVQLVESGGGLVQPGRSLRLSCTASGFTFSDNWMNWVRQAPGKGLEWVAQIRNKPYNYETYYSDSVKGRFTISRDDSKSIVYLQMNSLKTEDTAVYYCTGGMDYWGQGTTVTVSS VL: DIQMTQSPSSLSASVGDRVTITCGASEIIYGALNWYQQKPGKVPKLLIYGATNLADGVPSRFSGSGSGTDFTLTISSLQPEDVATYYCQKILSPPPWTFGGGTKVEIKR : 0.000228

The binder huC1D1-V8 (antibody, human IgG4 S228P, kappa, V domains shown, humanized IgG4/kappa; cell supernatant on Octet, purified antibody in Biacore, ELISA, FACS and the functional assay; also called hu CTLA4 C1D1-V8) VH: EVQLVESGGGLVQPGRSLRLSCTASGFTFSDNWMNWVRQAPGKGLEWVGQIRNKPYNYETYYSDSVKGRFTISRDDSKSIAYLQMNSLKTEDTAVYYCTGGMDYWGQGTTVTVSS VL: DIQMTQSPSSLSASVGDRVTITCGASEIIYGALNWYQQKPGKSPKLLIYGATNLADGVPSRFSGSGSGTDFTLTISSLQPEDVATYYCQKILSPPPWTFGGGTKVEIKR showed koff equal to 0.00019

So for huD1D5-V9 (antibody, human IgG4 S228P, kappa, V domains shown, humanized IgG4/kappa; cell supernatant on Octet, purified antibody in Biacore, ELISA, FACS and the functional assay; also called hu CTLA4 D1D5-V9; huDID5-V9) VH: EVQLVESGGGLVKPGGSLRLSCAASGFTFSDYGMAWVRQAPGKGPEWVAFISNLAYSVYYADTETGRFTISRDDAKNSLYLQMNSLRAEDTAVYYCARSGLPYAMDYWGQGTTVTVSS VL: DIQMTQSPSSLSASVGDRVTITCRASQDISNYLNWYQQKPGKVPKLLIYYISRLHSGVPSRFSGSGSGTDFTLTISSLQPEDVATYYCQQGRMLPWTFGGGTKVEIKR , the logged koff turned out to be 0.000471
